Data provenance: patent US10076519B2

- Test system: rabbit skeletal myofibrils (fast skeletal myofibrils)
- Procedure text: Activation of fast skeletal myofibrils (PUMA assay, PK/LDH-coupled ATPase at pCa25)
- Format: biochemical
- Condition description: AC1.4 determined according to the procedure of Example 39; reported as class symbols
Readout type: Mean AC1.4

Example results:
- Molecule: "CC(C)(CNc1ccc(C(N)=O)nn1)c1ccc(F)cc1"
  Mean AC1.4: "C (C=10-20 uM)"
- Molecule: "CC(C)(CNc1ccc(C(=O)N2CCCC(C(N)=O)C2)nn1)c1ccc(F)cc1 (stereo not drawn)"
  Mean AC1.4: "D (D=>20 uM)"
- Molecule: "CC(C)(CNc1ccc(-c2cn[nH]c2)nn1)c1ccc(F)cc1"
  Mean AC1.4: "B (B=1-10 uM)"
- Molecule: "CC(C)(CNc1ccc(-c2ccc3cn[nH]c3c2)nn1)c1ccc(F)cc1"
  Mean AC1.4: "A (A=<1 uM)"
- Molecule: "CCC(CNc1ccc(-c2cccc(C(N)=O)c2)nn1)c1ccccc1F (stereo not drawn)"
  Mean AC1.4: "B (B=1-10 uM)"

Exercise: I have this molecule here, `CC(C)(O)c1cccc(C(C)(C)CNc2ccc(-c3ccc4[nH]nc(N)c4c3)nn2)c1` , and I need its recorded Mean AC1.4.
Solution: C (C=10-20 uM)

Exercise: // query Mean AC1.4 value for entry `CC(C)(CNc1ccc(-c2cncc(C(N)=O)c2)nn1)c1ccccc1Cl`
Solution: B (B=1-10 uM)

Exercise: For `Cc1n[nH]c2cc(-c3ccc(NCC(C)(C)c4ccc(F)cc4)nn3)ccc12` , what is its reported Mean AC1.4?
Solution: B (B=1-10 uM)

Exercise: GET /values?readout=Mean AC1.4&item= NC(=O)c1cccc(-c2ccc(NCC3CCCc4ccccc43)nn2)c1 (stereo not drawn)
Solution: B (B=1-10 uM)

Exercise: # lookup: Mean AC1.4 of `Nc1n[nH]c2ccc(-c3ccc(NCC4(c5ccccc5F)CCCC4)nn3)cc12`
Solution: A (A=<1 uM)

---

- Tested on: rabbit skeletal myofibrils (fast skeletal myofibrils)
- Procedure text: Activation of fast skeletal myofibrils (PUMA assay, PK/LDH-coupled ATPase at pCa25)
- Assay type: biochemical
- Condition description: median AC1.4 class, procedure of Example 39
Readout type: Mean AC1.4

- Molecule: "Fc1cccnc1C1(CNc2ccc(-c3ncc(-c4nn[nH]n4)s3)nn2)CCC1"
  Target system: "rabbit skeletal myofibrils (fast skeletal myofibrils)"
  Mean AC1.4: "B (B=1-10 uM)"
- Molecule: "Nc1ccc2nc(-c3ccc(NCC4(c5ncccc5F)CCC4)nn3)sc2n1"
  Target system: "rabbit skeletal myofibrils (fast skeletal myofibrils)"
  Mean AC1.4: "B (B=1-10 uM)"
- Molecule: "Nc1nccc(-c2ccc(NCC3(c4ncccc4F)CCC3)nn2)n1"
  Target system: "rabbit skeletal myofibrils (fast skeletal myofibrils)"
  Mean AC1.4: "B (B=1-10 uM)"
- Molecule: "CS(=O)(=O)Nc1cccc(-c2ccc(NC3(c4ncccc4F)CCC3)nn2)c1"
  Target system: "rabbit skeletal myofibrils (fast skeletal myofibrils)"
  Mean AC1.4: "B (B=1-10 uM)"

Exercise: Given the compound `COc1ccc2nc(-c3ccc(NCC4(c5ncccc5F)CCC4)nn3)sc2n1` , what is its reported Mean AC1.4?
Solution: D (D=>20 uM)

Exercise: I would be grateful if you could share the reported Mean AC1.4 for `O=C(O)c1ccc(F)c(-c2ccc(NC3(c4ccc(F)cc4)CCC3)nn2)c1` .
Solution: B (B=1-10 uM)

Exercise: Name the reported Mean AC1.4 value associated with the compound `Fc1cccnc1C1(CNc2ccc(-c3ncc(CC(F)(F)F)s3)nn2)CCC1`
Solution: B (B=1-10 uM)

Exercise: Which Mean AC1.4 value belongs to `NC(=O)c1ncc(-c2ccc(NCC3(c4ncccc4F)CCC3)nn2)s1` ?
Solution: B (B=1-10 uM)

Exercise: Please give the measured Mean AC1.4 for this compound: `CC(=O)N1CC(c2ccc(NCC3(c4ncccc4F)CCC3)nn2)C1`
Solution: D (D=>20 uM)

---

- Test system: rabbit skeletal myofibrils (fast skeletal myofibrils)
- Procedure text: Activation of fast skeletal myofibrils (PUMA assay, PK/LDH-coupled ATPase at pCa25)
- Format: biochemical
- Condition description: median AC1.4 class, procedure of Example 39
Readout type: Mean AC1.4

- Molecule: "N#Cc1ccc(-c2ccc(NCC3(c4ncccc4F)CCC3)nn2)s1"
  Mean AC1.4: "B (B=1-10 uM)"
- Molecule: "N[C@H](CO)C(=O)NCc1cnc(-c2ccc(NCC3(c4ncccc4F)CCC3)nn2)s1"
  Mean AC1.4: "A (A=<1 uM)"
- Molecule: "O=C(NCc1cnc(-c2ccc(NCC3(c4ncccc4F)CCC3)nn2)s1)[C@H]1CS(=O)(=O)CCN1"
  Mean AC1.4: "A (A=<1 uM)"
- Molecule: "O=C(N[C@@H]1CCNC1)c1ccc(F)c(-c2ccc(NC[C@]3(c4ncccc4F)C[C@H](F)C3)nn2)c1"
  Mean AC1.4: "B (B=1-10 uM)"
- Molecule: "O=C(NC[C@H](O)CO)c1cnc(-c2ccc(NCC3(c4ncccc4F)CCC3)nn2)s1"
  Mean AC1.4: "A (A=<1 uM)"
- Molecule: "CC(C)C(=O)NCc1cnc(-c2ccc(NCC3(c4ncccc4F)CCC3)nn2)s1"
  Mean AC1.4: "A (A=<1 uM)"

Please find the next molecule below.
Exercise: Give recorded Mean AC1.4 with rabbit skeletal myofibrils (fast skeletal myofibrils) for the following molecule: `NC(=O)c1cccc(-c2ccc(NC3(c4ccc(F)cc4)CCC3)nn2)c1`
Solution: A (A=<1 uM)

---

- Test system: rabbit skeletal myofibrils (fast skeletal myofibrils)
- Procedure text: Activation of fast skeletal myofibrils (PUMA assay, PK/LDH-coupled ATPase at pCa25)
- Type: biochemical
- Condition description: median AC1.4 class, procedure of Example 39
Readout type: Mean AC1.4

- Compound: "CC(C)(Nc1ccc(-c2cccc(C(N)=O)c2)nn1)c1ccccn1"
  Target system: "rabbit skeletal myofibrils (fast skeletal myofibrils)"
  Readout type: "Mean AC1.4"
  Recorded result: "D (D=>20 uM)"
- Compound: "Fc1cccnc1C1(Nc2ccc(-c3ccccc3)nn2)CCC1"
  Target system: "rabbit skeletal myofibrils (fast skeletal myofibrils)"
  Readout type: "Mean AC1.4"
  Recorded result: "B (B=1-10 uM)"
- Compound: "NC(=O)c1cccc(-c2ccc(NC(=O)c3ccccc3)nn2)c1"
  Target system: "rabbit skeletal myofibrils (fast skeletal myofibrils)"
  Readout type: "Mean AC1.4"
  Recorded result: "D (D=>20 uM)"
- Compound: "NC(=O)c1ccc2nc(-c3ccc(NCC4(c5ncccc5F)CCC4)nn3)sc2n1"
  Target system: "rabbit skeletal myofibrils (fast skeletal myofibrils)"
  Readout type: "Mean AC1.4"
  Recorded result: "D (D=>20 uM)"
- Compound: "NC1(C(=O)NCc2cnc(-c3ccc(NCC4(c5ncccc5F)CCC4)nn3)s2)CC1"
  Target system: "rabbit skeletal myofibrils (fast skeletal myofibrils)"
  Readout type: "Mean AC1.4"
  Recorded result: "A (A=<1 uM)"
- Compound: "CC(OC(=O)NC(C)(C)C(=O)NCc1cnc(-c2ccc(NCC3(c4ncccc4F)CCC3)nn2)s1)OC(=O)C(C)C (stereo not shown)"
  Target system: "rabbit skeletal myofibrils (fast skeletal myofibrils)"
  Readout type: "Mean AC1.4"
  Recorded result: "A (A=<1 uM)"

Exercise: What value of Mean AC1.4 has been recorded for this entry: `O=C(O)c1cc(-c2ccc(NCC3(c4ncccc4F)CCC3)nn2)on1`
Solution: D (D=>20 uM)

Exercise: Any idea what its Mean AC1.4 is? The compound is `O=C(O)c1cnc(-c2ccc(NCC3(c4ncccc4F)CCC3)nn2)s1`
Solution: C (C=10-20 uM)

Exercise: What does the data say about its Mean AC1.4? Entry: `COc1cccc(-c2ccc(NC3(c4ccc(F)cc4)CCC3)nn2)n1`
Solution: B (B=1-10 uM)

Exercise: Can you share its Mean AC1.4? I mean this compound: `Fc1cccnc1C1(CNc2ccc(-c3nc4ccc(Cl)nc4s3)nn2)CCC1`
Solution: C (C=10-20 uM)

---

- Tested on: rabbit skeletal myofibrils (fast skeletal myofibrils)
- Procedure text: Activation of fast skeletal myofibrils (PUMA assay, PK/LDH-coupled ATPase at pCa25)
- Type: biochemical
- Condition description: median AC1.4 class, procedure of Example 39
Readout type: Mean AC1.4

- Molecule: "N[C@@H](CO)C(=O)NCc1cnc(-c2ccc(NCC3(c4ncccc4F)CCC3)nn2)s1"
  Recorded result: "A (A=<1 uM)"
- Molecule: "NC(=O)c1c[nH]c(-c2ccc(NCC3(c4ncccc4F)CCC3)nn2)n1"
  Recorded result: "B (B=1-10 uM)"
- Molecule: "CC(C)(Nc1ccc(-c2cc(C(N)=O)ccc2F)nn1)c1cccc(OC(F)F)n1"
  Recorded result: "A (A=<1 uM)"
- Molecule: "N#Cc1ccc(F)c(-c2ccc(NC3(c4ncccc4F)CCC3)nn2)c1"
  Recorded result: "B (B=1-10 uM)"
